Assay: NCI Yeast Anticancer Drug Screen. Data for the sgs1 mgt1 strain (AID 161);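 also: 0% = growth of cultures given vehicle only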
Conditions: S. cerevisiae sgs1 mgt1 strain, at 50.0 µM, active compounds read high
The panel holds about 79,000 compounds, 15% with a hit somewhere; the sample as a whole holds those more often.
observable: growth inhibition (%)
State the answer as a number, implicitly in %.

Lookup result for Oc1ccccc1/C=N\c1nccs1 ; measured growth inhibition: 18.6

Input CC(C)(C)C1CCC(C2CC(C(C)(C)C)CCC2=O)CC1 (stereo unspecified) . Output growth inhibition: 1.65

Notebook: Nc1nc(-c2ccccc2)cc2ccccc12 , growth inhibition read as 1.65

Lab book: growth inhibition of COc1ccc(N2C(=O)C3c4[nH]c5ccc(C)cc5c4C4CCC(C)CC4C3C2=O)cc1 (stereo unspecified) noted as 1.65

Summary for this compound, O=C(Cc1cc2c(cc1[N+](=O)[O-])OCO2)c1c[nH]c2ccc(Br)cc12 : growth inhibition is 19.6

Short answer for Cc1nn(C)c2ncnc(N)c12 : growth inhibition was 17

---

Test: NCI Yeast Anticancer Drug Screen. Data for the sgs1 mgt1 strain (AID 161);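 also: 0% = growth of cultures given vehicle only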
Details: S. cerevisiae sgs1 mgt1 strain, at 50.0 µM, active compounds read high
About 79,000 compounds went through this panel and 15% of them were active in at least one assay; those are over-represented in the sample as a whole. Activity calls are given as the source filed them. Rule as the data show it: active = growth inhibition above about 70%; inactive = the rest.
observable: growth inhibition

Lab note: O=C(Nc1ccc(Cl)cc1Cl)C1C(=O)C(=O)N(c2ccc(Cl)cc2Cl)C1=O (stereo unspecified) gave growth inhibition of -1.35% (inactive)

Entry under test: N#CC1(c2ccccc2)C(c2ccccc2)CC(O)(c2ccccc2)C(C(=O)c2ccccc2)C1c1ccccc1 (stereo unspecified) . Its growth inhibition was 3.5% (inactive)

Notebook: CCC(C)(C)c1ccc([N+](=O)[O-])cc1 , growth inhibition read as 27.4% (inactive)

growth inhibition for CC(=O)OCC1OC(Sc2nc3ncnc(N)c3[nH]2)C(OC(C)=O)C(OC(C)=O)C1OC(C)=O (stereo unspecified) is -18.9% (inactive)

For reference, reported growth inhibition for c1csc(-c2cc(-c3cccs3)c(-c3ccsc3)s2)c1 stands at -32.2% (inactive)

Lab book: growth inhibition of CC(=O)Oc1cccc2ccccc12 noted as 1% (inactive)

---

For each of the compounds below, state its growth inhibition.
Test: NCI Yeast Anticancer Drug Screen. Data for the mlh1 rad18 strain (AID 175)
Conditions: S. cerevisiae mlh1 rad18 strain growth inhibition; at 50.0 µM; active compounds read high
This is part of a sample that, as a whole, favours compounds with a hit. Of some 79,000 tested, about 15% had one in any assay.
Write the answer as a number in %, unit excluded.

For record Cc1ccc([N+](=O)[O-])c(N)c1 the listed growth inhibition is 26.4

growth inhibition measured on O=C1CSC(c2ccccc2Br)N1c1nncs1 (configuration not stated) = 7.75

Kindly note the recorded growth inhibition for CCN(CC)Cc1ccccc1COC(=O)c1ccc(OC)cc1 , which is 11.3

Kindly note the recorded growth inhibition for CC(=O)OCC1(C)CCC(C)CO1 (configuration not stated) , which is 7

GET /value?item= Nc1cccc2c(O)cc(S(=O)(=O)O)cc12 &field=growth inhibition returns 21.6

// sample Cc1cc2nc(N3CCCCC3)n(C3OC(CO)C(O)C3O)c2cc1C (configuration not stated) , its growth inhibition was 13.8

Record summary for CC(=O)Nc1ccc2c(Br)ccc3c2c1CC3 : reported growth inhibition = -4.45

The compound listed as Cn1c(=O)c2sc3cc4c(cc3c2c2ccccc21)sc1c(=O)n(C)c2ccccc2c14 shows growth inhibition equal to 24.9

Value of measured growth inhibition for the entry Cc1ccc(C(=O)CC2(O)C(=O)Nc3ccccc32)cc1 (configuration not stated) : 20.9

Form: compound = O=C(O)c1ccccc1C(=O)c1ccccn1 ; growth inhibition = -15.2

Looking up CCCCC/C(=N\NC(N)=O)C1=CCCCC1 , I found its growth inhibition recorded as 18.4

Measured growth inhibition, Nc1ncnc2nc(-c3ccc(C(=O)c4cccc([N+](=O)[O-])c4)cc3)[nH]c12 : -13.2
